target system: Protein phosphatase methylesterase 1 (Homo sapiens)
assay protocol: PME-1 inhibitor activity retest, confirmation, biochemical, fluorescence polarization, FP-Rh probe, triplicate (AID 2171);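 also: 0% = enzyme with DMSO and 100% = wells lacking PME-1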
details: recombinant PME-1, FP-Rh probe fluorescence polarization; at 5.9 µM
Active and inactive are the calls of the source.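 The calls were made as follows: active = inhibition above the hit cutoff set in the earlier primary screen (cut at about 27% in these data); inactive = the rest.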
Possible outcomes: active, inactive

[[record]]
smiles_input = "COc1ccc(NS(=O)(=O)c2ccc(N/N=C(\\C)c3ccncc3)c([N+](=O)[O-])c2)cc1"
class = "active"

[[record]]
smiles_input = "CC(C)S(=O)(=O)c1csc(NC(=O)Nc2cccc([N+](=O)[O-])c2)c1Cl"
class = "inactive"

[[record]]
smiles_input = "COC(=O)c1cc(C)nc2c1C(=O)C(=O)C=C2N1CCOCC1"
class = "active"

[[record]]
smiles_input = "O=C(N/N=C/c1c(O)ccc2ccccc12)Nc1ccccc1"
class = "active"

[[record]]
smiles_input = "CCc1ccc(S(=O)(=O)/N=C2\\C=C(Nc3ccc(C(=O)O)cc3)C(=O)c3ccccc32)cc1"
class = "active"


###

assay protocol: StAR promoter reporter inhibitors, counter-screen for LRH-1 inverse agonist project, cell-based, luminescence, high throughput (AID 651611)
details: StAR promoter luciferase reporter counterscreen, at 3.6 µM, hits give high values
reported property: inhibition (%)

[[record]]
smiles_input = "NC1=C(Cl)C(=O)c2ccc(S(N)(=O)=O)cc2C1=O"
units_label = "%"
observed_measurement = 89.7

[[record]]
smiles_input = "Cc1no[n+]([O-])c1COc1ccc(/C=C2\\NC(=S)NC2=O)cc1"
units_label = "%"
observed_measurement = -5.62

[[record]]
smiles_input = "COc1ccc(Nc2ccncc2[N+](=O)[O-])cc1"
units_label = "%"
observed_measurement = 13.4

[[record]]
smiles_input = "Cn1c(CCNC(=O)c2cccs2)nnc1SCC(=O)N1CCN(c2ccccc2)CC1"
units_label = "%"
observed_measurement = 7.98

[[record]]
smiles_input = "Nc1cccc2nc3ccccc3cc12"
units_label = "%"
observed_measurement = 21.7

[[record]]
smiles_input = "O=C(COC(=O)Cc1ccc(F)cc1)NCCc1ccccc1"
units_label = "%"
observed_measurement = 3.74

[[record]]
smiles_input = "COc1cccc(/C=N/NC(=O)c2c(C)nc3ccc(Cl)cn23)c1O"
units_label = "%"
observed_measurement = 86.7

[[record]]
smiles_input = "C=CCNc1nc2c(c(=O)n(C)c(=O)n2C)n1CCCCCC"
units_label = "%"
observed_measurement = 28.9

[[record]]
smiles_input = "NC(=O)c1cc2ccncc2c2ccccc12"
units_label = "%"
observed_measurement = 42.8


###

target system: Nuclear receptor coactivator 3 (Homo sapiens) (UniProt Q9Y6Q9)
Sequence (Q9Y6Q9 whole entry, looked up): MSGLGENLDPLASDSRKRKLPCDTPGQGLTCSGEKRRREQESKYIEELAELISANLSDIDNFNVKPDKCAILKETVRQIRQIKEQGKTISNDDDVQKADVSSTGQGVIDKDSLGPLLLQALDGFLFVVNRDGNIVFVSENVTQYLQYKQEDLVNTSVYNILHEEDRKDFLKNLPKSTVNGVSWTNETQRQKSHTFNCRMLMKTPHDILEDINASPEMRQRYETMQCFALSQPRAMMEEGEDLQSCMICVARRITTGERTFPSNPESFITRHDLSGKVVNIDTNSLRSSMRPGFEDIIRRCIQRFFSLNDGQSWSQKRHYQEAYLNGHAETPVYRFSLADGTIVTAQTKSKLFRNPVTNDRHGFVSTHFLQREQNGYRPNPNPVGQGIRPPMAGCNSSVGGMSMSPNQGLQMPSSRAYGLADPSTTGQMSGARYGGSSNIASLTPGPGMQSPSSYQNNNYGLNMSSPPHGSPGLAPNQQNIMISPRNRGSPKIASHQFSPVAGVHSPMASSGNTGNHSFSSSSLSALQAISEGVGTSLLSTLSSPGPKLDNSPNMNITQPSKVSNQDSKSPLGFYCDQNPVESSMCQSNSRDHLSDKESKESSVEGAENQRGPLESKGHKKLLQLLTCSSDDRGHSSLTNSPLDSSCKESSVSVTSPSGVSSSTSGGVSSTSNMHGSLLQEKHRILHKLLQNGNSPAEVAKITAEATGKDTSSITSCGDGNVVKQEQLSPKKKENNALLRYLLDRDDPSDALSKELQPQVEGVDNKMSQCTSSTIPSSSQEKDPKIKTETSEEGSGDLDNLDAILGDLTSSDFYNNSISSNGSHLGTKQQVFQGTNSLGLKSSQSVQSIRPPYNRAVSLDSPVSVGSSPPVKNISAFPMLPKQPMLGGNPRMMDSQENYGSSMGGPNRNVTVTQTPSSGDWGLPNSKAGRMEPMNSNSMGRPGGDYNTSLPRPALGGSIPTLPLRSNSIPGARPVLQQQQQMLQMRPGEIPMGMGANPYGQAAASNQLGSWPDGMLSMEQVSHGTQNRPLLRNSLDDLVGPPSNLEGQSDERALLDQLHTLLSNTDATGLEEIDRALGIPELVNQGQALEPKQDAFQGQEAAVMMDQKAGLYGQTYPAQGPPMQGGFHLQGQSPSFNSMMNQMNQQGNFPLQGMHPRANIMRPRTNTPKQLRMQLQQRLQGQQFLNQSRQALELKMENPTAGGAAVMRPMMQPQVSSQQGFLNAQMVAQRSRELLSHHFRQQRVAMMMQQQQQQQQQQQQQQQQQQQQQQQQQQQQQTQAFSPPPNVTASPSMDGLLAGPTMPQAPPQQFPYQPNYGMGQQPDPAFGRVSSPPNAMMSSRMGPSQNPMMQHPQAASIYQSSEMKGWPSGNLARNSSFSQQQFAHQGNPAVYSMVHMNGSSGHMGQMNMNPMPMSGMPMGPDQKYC
assay protocol: SRC3 coactivator transcriptional activity inhibitors, confirmation, cell-based, luminescence, quadruplicate (AID 588792);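 also: 0% = DMSO treated cells and 100% = gossypol at 36 µM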
details: HEK293 GAL4-SRC3 luciferase reporter, at 3.6 µM
The source made the active and inactive calls.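 How the source made its calls: active means mean inhibition over 43.08%, the solvent-only control mean plus 3 SD; inactive means the rest.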
Possible outcomes: 1 (active), 0 (inactive)

[[record]]
compound = "COC(CN(C(=O)CCl)C(C(=O)NC1CCCCC1)c1ccccc1C)OC (centres undefined)"
target_system = "Nuclear receptor coactivator 3 (Homo sapiens) (UniProt Q9Y6Q9)"
class = 1

[[record]]
compound = "NC(=S)NN=Cc1cc(-c2cccc(N)c2)ccn1"
target_system = "Nuclear receptor coactivator 3 (Homo sapiens) (UniProt Q9Y6Q9)"
class = 1

[[record]]
compound = "c1ccc(-c2nnc(-c3ccccn3)nc2NC2CCCCC2)cc1"
target_system = "Nuclear receptor coactivator 3 (Homo sapiens) (UniProt Q9Y6Q9)"
class = 1

[[record]]
compound = "COc1ccc(NC(=O)c2cc(-c3cc(Cl)ccc3C)n[nH]2)cc1OC"
target_system = "Nuclear receptor coactivator 3 (Homo sapiens) (UniProt Q9Y6Q9)"
class = 0

[[record]]
compound = "O=C(COC(=O)c1ccc[nH]c1=O)Nc1ccc(N2CCCCC2)cc1"
target_system = "Nuclear receptor coactivator 3 (Homo sapiens) (UniProt Q9Y6Q9)"
class = 1

[[record]]
compound = "COc1cccc(CNc2nc3cc(-c4cnn(Cc5ccccc5)c4)sc3c(=O)n2C)c1"
target_system = "Nuclear receptor coactivator 3 (Homo sapiens) (UniProt Q9Y6Q9)"
class = 0

[[record]]
compound = "Cc1cc2[nH]c3ccccc3c2c(C)n1"
target_system = "Nuclear receptor coactivator 3 (Homo sapiens) (UniProt Q9Y6Q9)"
class = 0

[[record]]
compound = "CCCC(C(=O)NC(C)(C)C)N(C(=O)c1snc(C(N)=O)c1N)c1ccc2c(c1)OCCO2 (centres undefined)"
target_system = "Nuclear receptor coactivator 3 (Homo sapiens) (UniProt Q9Y6Q9)"
class = 0

[[record]]
compound = "Brc1ccc2c(c1)CN1CCCC1=N2"
target_system = "Nuclear receptor coactivator 3 (Homo sapiens) (UniProt Q9Y6Q9)"
class = 0

[[record]]
compound = "O=C(Nc1nc(-c2ccc(F)c(F)c2)cs1)c1ccc(OCC2CCCO2)cc1 (centres undefined)"
target_system = "Nuclear receptor coactivator 3 (Homo sapiens) (UniProt Q9Y6Q9)"
class = 0

[[record]]
compound = "COc1ccc2nc(C)cc(SCC(=O)N/N=C/c3ccc(O)cc3O)c2c1"
target_system = "Nuclear receptor coactivator 3 (Homo sapiens) (UniProt Q9Y6Q9)"
class = 0

[[record]]
compound = "CN(C)CC1CCC/C(=C\\c2ccc(OC(=O)c3ccc(Cl)cc3)cc2)C1=O (centres undefined)"
target_system = "Nuclear receptor coactivator 3 (Homo sapiens) (UniProt Q9Y6Q9)"
class = 1

[[record]]
compound = "Fc1ccc(NC(=S)NNc2ncc(C(F)(F)F)cc2Cl)c(F)c1"
target_system = "Nuclear receptor coactivator 3 (Homo sapiens) (UniProt Q9Y6Q9)"
class = 0

[[record]]
compound = "COc1ccc(/C=C2\\N=C(C(C)(C)C)OC2=O)c(OC)c1"
target_system = "Nuclear receptor coactivator 3 (Homo sapiens) (UniProt Q9Y6Q9)"
class = 0

[[record]]
compound = "OC[C@H]1O[C@@H](n2cnc3c(NCc4ccco4)ncnc32)[C@H](O)[C@@H]1O"
target_system = "Nuclear receptor coactivator 3 (Homo sapiens) (UniProt Q9Y6Q9)"
class = 1

[[record]]
compound = "O=C(NN=Cc1ccccc1O)NN=Cc1ccccc1O"
target_system = "Nuclear receptor coactivator 3 (Homo sapiens) (UniProt Q9Y6Q9)"
class = 1

[[record]]
compound = "Cn1nnnc1N=N/C(=N/Nc1ccccc1)c1ccccc1"
target_system = "Nuclear receptor coactivator 3 (Homo sapiens) (UniProt Q9Y6Q9)"
class = 1

[[record]]
compound = "O=C(Nc1ccc(N2CCN(c3ncccc3C(F)(F)F)CC2)nc1)c1cccs1"
target_system = "Nuclear receptor coactivator 3 (Homo sapiens) (UniProt Q9Y6Q9)"
class = 0

[[record]]
compound = "COc1ccc(CCNC(=O)C2CCCN(S(C)(=O)=O)C2)cc1OC (centres undefined)"
target_system = "Nuclear receptor coactivator 3 (Homo sapiens) (UniProt Q9Y6Q9)"
class = 0

[[record]]
compound = "COc1cc([C@@H]2c3cc4c(cc3[C@@H](O[C@@H]3O[C@@H]5CO[C@@H](C)O[C@H]5[C@H](O)[C@H]3O)[C@H]3COC(=O)[C@H]23)OCO4)cc(OC)c1O"
target_system = "Nuclear receptor coactivator 3 (Homo sapiens) (UniProt Q9Y6Q9)"
class = 1

[[record]]
compound = "COc1ccc(Nc2nc(N3CCCC3)nc3ccccc23)c(OC)c1"
target_system = "Nuclear receptor coactivator 3 (Homo sapiens) (UniProt Q9Y6Q9)"
class = 0

[[record]]
compound = "COc1ccc(NC(=O)c2ccc(-c3ccccc3)cc2)cc1S(=O)(=O)N1CCOCC1"
target_system = "Nuclear receptor coactivator 3 (Homo sapiens) (UniProt Q9Y6Q9)"
class = 0

[[record]]
compound = "CSC1SCC2C(=O)N(C)C(C(C)C)C(=O)OCC(NC(=O)c3cnc4ccccc4n3)C(=O)NC(C)C(=O)N(C)C1C(=O)N(C)C(C(C)C)C(=O)OCC(NC(=O)c1cnc3ccccc3n1)C(=O)NC(C)C(=O)N2C (centres undefined)"
target_system = "Nuclear receptor coactivator 3 (Homo sapiens) (UniProt Q9Y6Q9)"
class = 1

[[record]]
compound = "CC1CC(C)C(=NNC(N)=O)C(C(O)CC2CCC(=O)NC2=O)C1 (centres undefined)"
target_system = "Nuclear receptor coactivator 3 (Homo sapiens) (UniProt Q9Y6Q9)"
class = 0

[[record]]
compound = "CCCC(=O)NC(c1ccc(C)cc1)c1ccc2cccnc2c1O (centres undefined)"
target_system = "Nuclear receptor coactivator 3 (Homo sapiens) (UniProt Q9Y6Q9)"
class = 1

[[record]]
compound = "CCOC(=O)c1cccc(NC(=O)CSc2nc3cccnc3n2C)c1"
target_system = "Nuclear receptor coactivator 3 (Homo sapiens) (UniProt Q9Y6Q9)"
class = 0

[[record]]
compound = "Cn1nc(CC(=O)Nc2ccc(N3CCN(C(=O)OC(C)(C)C)CC3)cc2)c2ccccc2c1=O"
target_system = "Nuclear receptor coactivator 3 (Homo sapiens) (UniProt Q9Y6Q9)"
class = 0

[[record]]
compound = "O=C(NCc1ccco1)c1ccc2c(c1)N(Cc1ccccc1)CCS2"
target_system = "Nuclear receptor coactivator 3 (Homo sapiens) (UniProt Q9Y6Q9)"
class = 0

[[record]]
compound = "O=[N+]([O-])c1ccc(Oc2ccc(F)cc2)c2ccncc12"
target_system = "Nuclear receptor coactivator 3 (Homo sapiens) (UniProt Q9Y6Q9)"
class = 1

[[record]]
compound = "CCc1nc(N)nc(N)c1-c1ccc(Cl)c([N+](=O)[O-])c1"
target_system = "Nuclear receptor coactivator 3 (Homo sapiens) (UniProt Q9Y6Q9)"
class = 1

[[record]]
compound = "Cc1ccc(C2NC(=O)CCC2[N+](=O)[O-])cc1 (centres undefined)"
target_system = "Nuclear receptor coactivator 3 (Homo sapiens) (UniProt Q9Y6Q9)"
class = 0

[[record]]
compound = "CC[C@@]1(O)C(=O)OCc2c1cc1n(c2=O)Cc2cc3c(CN(C)C)c(O)ccc3nc2-1"
target_system = "Nuclear receptor coactivator 3 (Homo sapiens) (UniProt Q9Y6Q9)"
class = 1

[[record]]
compound = "Cn1nc(C(F)(F)F)c(-c2ccccc2)c1NC(=O)c1cccnc1"
target_system = "Nuclear receptor coactivator 3 (Homo sapiens) (UniProt Q9Y6Q9)"
class = 0

[[record]]
compound = "CC(C)(C)c1ccc(Oc2ccc(NC(=O)c3ccccc3C(=O)O)cn2)cc1"
target_system = "Nuclear receptor coactivator 3 (Homo sapiens) (UniProt Q9Y6Q9)"
class = 0

